The measured values listed here are drawn from a melting point compilation (Tetko et al.; mined from patent text by program, amines drawn as free bases though some values may be those of a salt).

Measured melting point accompanies every entry in the list below.

Here's what some known entries look like.
Chemical Structure: CC(C)(C)OC(=O)N1CCC(N2C(=O)OCc3ccccc32)CC1
Result: 143 to 145 °C
//
Chemical Structure: COc1ccccc1-n1c(=O)[nH]c2c(C(N)=O)nc(Nc3ccc(O)cc3)nc21
Result: 223 to 224 °C
//
Chemical Structure: Cc1cc(-n2cnnn2)ccc1[N+](=O)[O-]
Result: 166 to 168 °C

[ask] Would you mind telling me what melting point value was observed for `O=C(O)c1ccc(NCCCCCCOc2ccccc2)cc1` ?
[reply] 168 to 170 °C

###

Measured melting point accompanies every entry in the list below.

[ask] Would you mind telling me what melting point value was observed for CC(=O)N1CC(CCN2CC=CCC2c2ccc(C(F)(F)F)cc2)c2ccccc21 (stereo unspecified) ?
[reply] 85 to 88 °C

[ask] Would you mind telling me what melting point value was observed for CCOC(=O)COC1OCC[C@@H]1NC(=O)[C@H](Cc1ccccc1)NC(=O)OCc1ccccc1 (stereo partly specified) ?
[reply] 103 to 106 °C

[ask] Would you mind telling me what melting point value was observed for `CCCc1c(OCCCCCC(=O)c2cc(OC)c(OC)c(C(C)C)c2)ccc(C(=O)O)c1O` ?
[reply] 113 to 115 °C

[ask] Would you mind telling me what melting point value was observed for NC(=S)N1CCSC1c1ccccc1OCCN1CCN(c2cccc(F)c2)CC1 (stereo unspecified) ?
[reply] 136 to 137 °C

[ask] Would you mind telling me what melting point value was observed for `CCCCOc1ccc(C(=O)c2ccc(OCCBr)cc2)cc1` ?
[reply] 107 to 108 °C

###

Measured melting point accompanies every entry in the list below.

[ask] Would you mind telling me what melting point value was observed for `COc1cc(C(F)(F)F)nc2c(N3CCC4(CC3)OCCO4)ccc(F)c12` ?
[reply] 101 to 103 °C

[ask] Would you mind telling me what melting point value was observed for `CS(=O)(=O)c1ccc(-n2cc(COCc3ccccc3)nc2-c2ccc(Cl)cc2)cc1` ?
[reply] 64 to 65 °C

[ask] Would you mind telling me what melting point value was observed for `O=C(NCCc1c[nH]cn1)c1ccccc1NS(=O)(=O)c1cccc(C(F)(F)F)c1` ?
[reply] 160 to 163 °C

###

Measured melting point accompanies every entry in the list below.

Here's what some known entries look like.
Chemical Structure: CCOc1ccc(NC(=O)c2c[nH]c3c2C(=O)C(C)(C)CC3)c(F)c1
melting point: 218 to 219 °C
//
Chemical Structure: COc1ccc(Cl)c(NC(=O)N(C)c2cc(Nc3ccc(N4CCN(C)CC4)cc3)ncn2)c1Cl
melting point: 162 to 163 °C
//
Chemical Structure: O=C(O)c1ccc(Br)c(CN2CCC(c3cn(Cc4ccncc4)c4ccccc34)CC2)c1
melting point: 167 to 168 °C
//
Chemical Structure: Cc1nc(S(C)(=O)=O)oc1C
melting point: 42 °C
//
Chemical Structure: Cc1oc(-c2ccccc2)nc1CCCCCO
melting point: 40 to 42 °C
//
Chemical Structure: Cc1cc2c(c(C(C)(C)C)c1)OP(NC1CC(C)(C)N(C)C(C)(C)C1)Oc1c(cc(C)cc1C(C)(C)C)C2
melting point: 207 to 216 °C
//
Chemical Structure: Cc1nnc2n1-c1ccccc1C(c1ccccc1)=NC2
melting point: 216 to 218 °C
//
Chemical Structure: CCCCc1oc2ccccc2c1C(=O)Nc1ccc2cc(O)ccc2c1
melting point: 162 to 164 °C

[ask] Would you mind telling me what melting point value was observed for `Cc1ccc(C(=O)O)c(NS(C)(=O)=O)c1` ?
[reply] 202 to 205 °C

[ask] Would you mind telling me what melting point value was observed for `Clc1ccc(Nc2nc3ccccc3c3[nH]c(C4CCCCC4)nc23)cc1Cl` ?
[reply] 237 to 240 °C

[ask] Would you mind telling me what melting point value was observed for `OCc1ccc2c(ccn2-c2ccnc(N[C@H]3CC[C@H](O)CC3)n2)c1` ?
[reply] 232 to 234 °C

[ask] Would you mind telling me what melting point value was observed for `CCOC(=O)C1=C(S(=O)(=O)Cl)CCCC1` ?
[reply] 31.5 to 32.5 °C

###

Measured melting point accompanies every entry in the list below.

Here's what some known entries look like.
Molecule: Clc1ccc(C2(c3ccc4nccc(CCc5ccc(Cl)s5)c4c3)OCCO2)cc1
Result: 94 °C
--
Molecule: CCNC(=S)NC1CCCc2sccc21 (stereo unspecified)
Result: 106 to 112 °C
--
Molecule: O=CNCC1CCN(C(c2ccccc2)c2ccccc2)CC1
Result: 125 °C
--
Molecule: CCN(C1CC(C)(C)Oc2ccc(O)cc21)S(C)(=O)=O (stereo unspecified)
Result: 169 to 170 °C
--
Molecule: O=C1CC2(CC2)CC(=O)O1
Result: 102 °C

Now for a further molecule.
[ask] Would you mind telling me what melting point value was observed for COc1ccc2c(c1)CC(N(CC(=O)O)C(=O)C(C)CSC(C)=O)CC2 (stereo unspecified) ?
[reply] 147 to 150 °C

###

Outcome Measure: melting point

Here's what some known entries look like.
Chemical Structure: O=C1CCCN1C(=O)Oc1cccc(Cl)c1
Result: 88 to 89 °C

Chemical Structure: O=C(O)CCC(=O)OCCc1ccccc1
Result: 60 to 62 °C

[ask] Would you mind telling me what melting point value was observed for `ClCc1cccc2c(-c3ccc(Br)cc3)nccc12` ?
[reply] 116 to 118 °C

###

Measured melting point accompanies every entry in the list below.

Here's what some known entries look like.
Compound: CCCCCCCC(c1cc(C)cc(N=Nc2ccc(C)cc2[N+](=O)[O-])c1O)c1cc(C)cc(N=Nc2ccc(C)cc2[N+](=O)[O-])c1O (stereo not drawn)
melting point: 145 °C

Compound: CCCCc1nc2c(N)nc3ccc(OCCC4CCN(C(=O)C(C)C)CC4)cc3c2n1C
melting point: 189 to 193 °C

Now for a further compound.
[ask] Would you mind telling me what melting point value was observed for `CCOc1cccc2c1Sc1ccccc1C2` ?
[reply] 95 to 98 °C

###

Measured melting point accompanies every entry in the list below.

Here's what some known entries look like.
Molecule: Cc1nc(N2CCc3ccccc3CC2)c(C#N)c(=O)n1N(CC(F)(F)F)C(=O)OC(C)(C)C
melting point: 86 to 88 °C
--
Molecule: COc1cccc(OC2COc3ccc(OCc4cc(OC)ccn4)cc3C2O)c1 (stereo not given)
melting point: 165 to 166 °C
--
Molecule: Cc1ccc(S(=O)(=O)NC(CC(N)=O)C(=O)O)cc1 (stereo not given)
melting point: 198 to 200 °C
--
Molecule: CC(C)(C)OC(=O)N1CCCC[C@@H]1[C@H](CO)c1ccc(Br)cc1
melting point: 117 to 118 °C
--
Molecule: CC(C)(C)OC(=O)N1C[C@H](OS(C)(=O)=O)C[C@H]1CO
melting point: 95 to 96 °C
--
Molecule: Cc1nn(C)c(NCC(C)(C)C)c1N=O
melting point: 83 to 84 °C
--
Molecule: COC(=O)C1=C(C)NN=C(c2ccccc2)C1c1cccc(Cl)c1 (stereo not given)
melting point: 189 °C
--
Molecule: COc1ccc2cccc(C(=O)C(=O)O)c2c1
melting point: 99 °C

[ask] Would you mind telling me what melting point value was observed for `Cn1nc(-c2ncc(Cl)cc2F)c([N+](=O)[O-])c1OC(F)F` ?
[reply] 108 to 109 °C

[ask] Would you mind telling me what melting point value was observed for `O=[N+]([O-])c1ccccc1Nc1ccccc1F` ?
[reply] 58 to 59 °C

[ask] Would you mind telling me what melting point value was observed for `CCCCOC(=O)[C@H]1CN(c2ccc(N3CCSCC3)c(F)c2)C(=O)O1` ?
[reply] 128 to 130 °C

[ask] Would you mind telling me what melting point value was observed for `CC(=O)O[C@H]1[C@H]([C@H](Cc2ccccc2)NC(=O)OCc2ccccc2)OC(=O)N[C@H]1Cc1ccccc1` ?
[reply] 140 to 142 °C

[ask] Would you mind telling me what melting point value was observed for `Oc1cccc(CCCn2ccnc2)c1` ?
[reply] 110 to 111 °C

[ask] Would you mind telling me what melting point value was observed for `COC(=O)c1cccc(C[C@H](N)C(=O)O)c1` ?
[reply] > 200 °C

[ask] Would you mind telling me what melting point value was observed for `CCOC(=O)CSc1cccc(-c2nc(=O)c3ccccc3s2)n1` ?
[reply] 124 to 125 °C

[ask] Would you mind telling me what melting point value was observed for `COc1cccc(OC)c1C(=N)N` ?
[reply] 170 to 174 °C

[ask] Would you mind telling me what melting point value was observed for `CS(=O)(=O)Nc1cc2occ(N3CCCC3=O)c(=O)c2cc1Oc1ccccc1` ?
[reply] 192 to 193 °C

[ask] Would you mind telling me what melting point value was observed for `CCCN(C(=O)C(F)(F)F)c1ccc(I)cc1` ?
[reply] 177 to 179 °C

[ask] Would you mind telling me what melting point value was observed for CCCN1CC(Nc2ccc3c(c2)CCO3)CC2c3cccc4c3c(cn4C)CC21 (stereo not given) ?
[reply] 137 to 138 °C

[ask] Would you mind telling me what melting point value was observed for `NC(=O)N1c2ccccc2CC(=NNc2ccccc2)c2ccccc21` ?
[reply] 220 to 221 °C

[ask] Would you mind telling me what melting point value was observed for `COC=C(C(=O)OC)n1ccc2ccc(-c3csc(-c4ccc(C)cc4)n3)cc21` ?
[reply] 145 to 146 °C

[ask] Would you mind telling me what melting point value was observed for `CC(C)(C)NC(=S)Nc1cccc(SCCCC#N)n1` ?
[reply] 156 to 157 °C
